experiment: Molar extinction coefficient of i-line (365 nm), UV-visible absorbance in acetonitrile
Type: physicochemical
run-conditions: 0.25 mmol/L in acetonitrile, cell length 1 cm
value-type: Molar extinction coefficient (L/mol/cm)
// units = L/mol/cm; emit number, no label

In: What value of Molar extinction coefficient has been reported for the following compound? "CC1(C)[C@@H]2CC[C@@]1(CS(=O)(=O)ON1C(=O)c3cccc4c([Si](C)(C)C)ccc(c34)C1=O)C(=O)C2"
Out: 5500

In: Check "O=C(Oc1cc2c3c(cccc3c1)C(=O)N(OS(=O)(=O)C(F)(F)F)C2=O)c1c(F)c(F)c(F)c(F)c1F" too.
Out: 1300

In: Check "CC1(C)C2CC[C@@]1(CS(=O)(=O)ON1C(=O)c3cccc4cc(OC(=O)c5c(F)c(F)c(F)c(F)c5F)cc(c34)C1=O)C(=O)C2" too.
Out: 1300

In: Check "O=C(Cc1ccccc1)c1ccc2c3c(cccc13)C(=O)N(OS(=O)(=O)C(F)(F)F)C2=O" too.
Out: 3000

* * *

experiment: Solvent solubility (butyl acetate, toluene or PGMEA)
Type: physicochemical
run-conditions: toluene, 25° C.
So I've got a bunch of compounds here, and I need their Solvent solubility Toluene values.

In: What value of Solvent solubility Toluene has been reported for the following compound? "O=C1c2cccc3c(C(F)(F)C(F)(F)C(F)(F)C(F)(F)C(F)(F)C(F)(F)C(F)(F)C(F)(F)F)ccc(c23)C(=O)N1OS(=O)(=O)C(F)(F)F"
Out: >30 wt %

In: Check "O=C(Oc1cc2c3c(cccc3c1)C(=O)N(OS(=O)(=O)c1c(F)c(F)c(F)c(F)c1F)C2=O)c1c(F)c(F)c(F)c(F)c1F" too.
Out: 22 wt %

In: Check "CC1(C)C2CC[C@@]1(CS(=O)(=O)ON1C(=O)c3cccc4c(Sc5ccccc5)ccc(c34)C1=O)C(=O)C2" too.
Out: 1.7 wt %

In: Check CC1(C)C2CCC1(CS(=O)(=O)ON1C(=O)c3cccc4c(C(F)(F)C(F)(F)C(F)(F)C(F)(F)F)ccc(c34)C1=O)C(=O)C2 (centres unmarked) too.
Out: 5.5 wt %

In: Check "O=C1c2cc(C34CC5CC(CC(C5)C3)C4)cc3cc(C45CC6CC(CC(C6)C4)C5)cc(c23)C(=O)N1OS(=O)(=O)c1c(F)c(F)c(F)c(F)c1F" too.
Out: 9 wt %

In: Check "O=C1c2cccc3c(Oc4c(F)c(F)c(F)c(F)c4F)ccc(c23)C(=O)N1OS(=O)(=O)c1c(F)c(F)c(F)c(F)c1F" too.
Out: 13 wt %

In: Check "CCCOc1ccc2c3c(cccc13)C(=O)N(OS(=O)(=O)C(F)(F)F)C2=O" too.
Out: 7.5 wt %

In: Check "CC1(C)C2CC[C@@]1(CS(=O)(=O)ON1C(=O)c3cccc4cc(OC(=O)c5ccccc5)cc(c34)C1=O)C(=O)C2" too.
Out: 6 wt %

In: Check "C[Si](C)(C)c1ccc2c3c(cccc13)C(=O)N(OS(=O)(=O)C(F)(F)F)C2=O" too.
Out: 9 wt %

In: Check CC(C)(C)c1cc2c3c(cc(C(C)(C)C)cc3c1)C(=O)N(OS(=O)(=O)CC13CCC(CC1=O)C3(C)C)C2=O (centres unmarked) too.
Out: 1.9 wt %

In: Check "O=C(Cc1ccccc1)c1ccc2c3c(cccc13)C(=O)N(OS(=O)(=O)C(F)(F)F)C2=O" too.
Out: 7 wt %

In: Check CCCCC(CC)C(=O)Oc1cc2c3c(cccc3c1)C(=O)N(OS(=O)(=O)C(F)(F)F)C2=O (centres unmarked) too.
Out: >30 wt %

In: Check "C[Si](C)(C)c1ccc2c3c(cccc13)C(=O)N(OS(=O)(=O)c1c(F)c(F)c(F)c(F)c1F)C2=O" too.
Out: 6 wt %

In: Check "COc1cc2c3c(cccc3c1)C(=O)N(OS(=O)(=O)C[C@]13CCC(CC1=O)C3(C)C)C2=O" too.
Out: 1.9 wt %
